Provide the recorded Phytotoxicity, Cotton for the entries that follow.
test system: Cotton; assay: Pre-emergence treatment, phytotoxicity to cotton; format: in vivo; settings: 500 g/ha, 4 weeks after spraying, scale 0 to 10 (0: no effects, 10: complete death)
Answer with a bare number; do not write a unit.

If you can, please state the reported Phytotoxicity, Cotton value of Cc1cccc(C2=NOC(C)(COCc3c(F)cccc3F)C2)c1 (stereo not shown) [Reference F] .
0

# input compound: CC1(COCc2ccccc2F)CC(c2ccccc2[N+](=O)[O-])=NO1 (stereo not shown) [Reference A] ; wanted: its Phytotoxicity, Cotton
0

Bench note: what Phytotoxicity, Cotton did CC1(COCc2c(F)cccc2Cl)CC(c2ccccc2Cl)=NO1 (stereo not shown) [Reference B] show?
0

Give its Phytotoxicity, Cotton value. Item: CC1(COCc2c(F)cccc2F)CC(c2ccccc2Cl)=NO1 (stereo not shown) [Compound 2]
0

Which Phytotoxicity, Cotton is listed for CC1(COCc2c(F)cccc2F)CC(c2ccccc2F)=NO1 (stereo not shown) [Compound 4] ?
1

Phytotoxicity, Cotton for Cc1ccccc1C1=NOC(C)(COCc2ccccc2F)C1 (stereo not shown) [Reference D] ?
0

Fill in: Phytotoxicity, Cotton of CC1(COCc2c(F)cccc2Cl)CC(c2ccccc2)=NO1 (stereo not shown) [Reference H] is ___
0

// query Phytotoxicity, Cotton value for entry Cc1ccccc1C1=NOC(C)(COCc2ccccc2)C1 (stereo not shown) [Reference C]
1

Look at this compound and give its reported Phytotoxicity, Cotton. Cc1ccccc1C1=NOC(C)(COCc2c(F)cccc2Cl)C1 (stereo not shown) [Reference E]
0

Endpoint output: Phytotoxicity, Cotton of CC1(COCc2c(F)cccc2F)CC(c2ccccc2C(F)(F)F)=NO1 (stereo not shown) [Compound 5] . Value?
1

Looking for the measured Phytotoxicity, Cotton of CC1(COCc2c(F)cccc2F)CC(c2ccccc2Br)=NO1 (stereo not shown) [Compound 3] , can you help?
0

// query Phytotoxicity, Cotton value for entry Cc1ccccc1C1=NOC(C)(COCc2c(F)cccc2F)C1 (stereo not shown) [Compound 1]
0

Request the reported Phytotoxicity, Cotton associated with Cc1ccc(C2=NOC(C)(COCc3c(F)cccc3F)C2)cc1 (stereo not shown) [Reference G]
0
